assay-name: total protein half-life in vivo (active degradation + dilution); higher = more stable protein
particulars: E. coli NCM3722 delta-clpP; growth: N-lim chemostat; doubling time 6 h
Catalogue of total protein half-life in vivo readings, one per entry.
// note: answer is a bare numeric in h

For record `MSKSRLTVFSFVRRFLLRLMVVLAVFWGGGIALFSVAPVPFSAVMVERQVSAWLHGNFRYVAHSDWVSMDQISPWMGLAVIAAEDQKFPEHWGFDVASIEKALAHNERNENRIRGASTISQQTAKNLFLWDGRSWVRKGLEAGLTLGIETVWSKKRILTVYLNIAEFGDGVFGVEAAAQRYFHKPASKLTRSEAALLAAVLPNPLRFKVSSPSGYVRSRQAWILRQMYQLGGEPFMQQHQLD` the listed total protein half-life in vivo is 6.44

---
For record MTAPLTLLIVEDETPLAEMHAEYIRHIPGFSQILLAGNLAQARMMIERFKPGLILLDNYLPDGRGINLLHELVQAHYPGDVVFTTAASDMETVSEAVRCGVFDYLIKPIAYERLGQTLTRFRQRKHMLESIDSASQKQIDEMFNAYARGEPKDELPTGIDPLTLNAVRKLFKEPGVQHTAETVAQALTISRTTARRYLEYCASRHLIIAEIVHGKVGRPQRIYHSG [P0AEF4] the listed total protein half-life in vivo is 3.39

For record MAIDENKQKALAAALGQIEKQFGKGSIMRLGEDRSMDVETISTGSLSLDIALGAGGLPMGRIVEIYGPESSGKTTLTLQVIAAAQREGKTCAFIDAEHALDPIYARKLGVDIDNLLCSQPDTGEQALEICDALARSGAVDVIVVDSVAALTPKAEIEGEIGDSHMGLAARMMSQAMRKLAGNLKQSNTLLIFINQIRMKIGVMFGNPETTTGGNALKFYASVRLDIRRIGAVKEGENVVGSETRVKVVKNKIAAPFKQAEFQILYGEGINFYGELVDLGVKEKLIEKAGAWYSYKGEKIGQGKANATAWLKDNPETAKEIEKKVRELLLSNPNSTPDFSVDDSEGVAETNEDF [P0A7G6] the listed total protein half-life in vivo is 5.85

For record MSALFLAIPLTIFVLFVLPIWLWLHYSNRSGRSELSQSEQQRLAQLADEAKRMRERIQALESILDAEHPNWRDR [P0AFM9] the listed total protein half-life in vivo is 6.06

For record `MSDNAQLTGLCDRFRGFYPVVIDVETAGFNAKTDALLEIAAITLKMDEQGWLMPDTTLHFHVEPFVGANLQPEALAFNGIDPNDPDRGAVSEYEALHEIFKVVRKGIKASGCNRAIMVAHNANFDHSFMMAAAERASLKRNPFHPFATFDTAALAGLALGQTVLSKACQTAGMDFDSTQAHSALYDTERTAVLFCEIVNRWKRLGGWPLSAAEEV` the listed total protein half-life in vivo is 5.43
